- STUDY_SYSTEM: UniProtKB Q9UGN5
- Sequence (Q9UGN5 whole entry): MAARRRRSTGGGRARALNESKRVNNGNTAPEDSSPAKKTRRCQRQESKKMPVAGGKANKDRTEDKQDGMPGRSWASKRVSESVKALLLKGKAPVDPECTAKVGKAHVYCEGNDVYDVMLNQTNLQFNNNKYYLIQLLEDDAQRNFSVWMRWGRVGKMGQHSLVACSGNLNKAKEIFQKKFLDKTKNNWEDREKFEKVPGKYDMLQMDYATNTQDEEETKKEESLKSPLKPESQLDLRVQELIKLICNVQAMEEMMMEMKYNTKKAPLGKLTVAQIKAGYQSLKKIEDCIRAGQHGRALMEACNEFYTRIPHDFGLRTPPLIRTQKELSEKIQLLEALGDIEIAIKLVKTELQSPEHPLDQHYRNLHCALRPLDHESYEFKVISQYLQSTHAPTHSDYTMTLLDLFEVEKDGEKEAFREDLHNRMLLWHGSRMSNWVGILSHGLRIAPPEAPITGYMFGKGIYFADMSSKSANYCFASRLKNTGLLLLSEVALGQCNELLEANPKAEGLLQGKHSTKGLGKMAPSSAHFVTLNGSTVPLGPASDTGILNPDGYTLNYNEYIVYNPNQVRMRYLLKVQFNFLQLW
- TEST_DESCRIPTION: In vitro IC50, PARP2
- Type: biochemical
- CONDITION_PARAMETERS: SEM from a minimum of three dose-response experiments
PROPERTY_LABEL: IC50

Looking for the measured IC50 of `Cc1ccc2c(=O)[nH]c(CSc3ncnc4nc[nH]c34)nc2c1C` , can you help?
> 30 µM

Then `Cc1ccc2c(=O)[nH]c(CSc3ccc(C(=O)O)cc3)nc2c1C` ?
8.46 µM

Then `C#Cc1ccc2c(=O)[nH]c(CSc3ccc(C(=O)O)cc3)nc2c1C` ?
> 30 µM

Then `CC#Cc1ccc2c(=O)[nH]c(CSc3ncccn3)nc2c1C` ?
> 30 µM

Then `Cc1ccc2c(=O)[nH]c(CSc3nnc(N)[nH]3)nc2c1C` ?
> 30 µM

Then `Cc1ccc2c(=O)[nH]c(CSc3ncccn3)nc2c1C` ?
17.4 µM

====

Sequence of the target: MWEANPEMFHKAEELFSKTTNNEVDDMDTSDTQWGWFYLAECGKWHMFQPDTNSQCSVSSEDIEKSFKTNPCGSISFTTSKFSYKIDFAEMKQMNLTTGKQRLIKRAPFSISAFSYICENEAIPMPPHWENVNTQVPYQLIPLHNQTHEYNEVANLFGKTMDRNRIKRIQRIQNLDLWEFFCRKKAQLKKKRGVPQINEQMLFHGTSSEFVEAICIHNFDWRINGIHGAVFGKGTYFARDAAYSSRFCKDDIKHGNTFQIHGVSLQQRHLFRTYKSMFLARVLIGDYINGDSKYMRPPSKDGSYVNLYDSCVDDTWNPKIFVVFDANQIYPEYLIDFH
Could you mark each record yes if its IC50 falls strictly under 3000 nM, and no if it equals or exceeds it?

Is the reported IC50 for CNCc1ccc(-c2[nH]c3cc(F)cc4c3c2CCNC4=O)cc1 [Rucaparib, reference compound] strictly below 3000 nM?
no

Then Cc1ccc2c(=O)[nH]c(CSc3ccc(C(=O)O)cc3)nc2c1C [ITK4] ?
no

Then Cc1ccc2c(=O)[nH]c(CSc3ncnc4nc[nH]c34)nc2c1C [ITK2] ?
no

Then C#Cc1ccc2c(=O)[nH]c(CSc3ccc(C(=O)O)cc3)nc2c1C [ITK5] ?
yes

Then CC#Cc1ccc2c(=O)[nH]c(CSc3ccc(C(=O)O)cc3)nc2c1C [ITK6] ?
yes

Then CC#Cc1ccc2c(=O)[nH]c(CSc3ncccn3)nc2c1C [ITK7] ?
yes

Then Cc1ccc2c(=O)[nH]c(CSc3nnc(N)[nH]3)nc2c1C [ITK3] ?
no

Then Cc1ccc2c(=O)[nH]c(CSc3ncccn3)nc2c1C [ITK1] ?
yes

====

Parameter IC50, tested on PARP7 (Homo sapiens, UniProt Q7Z3E1), listed per item.
Sequence (Q7Z3E1 whole entry): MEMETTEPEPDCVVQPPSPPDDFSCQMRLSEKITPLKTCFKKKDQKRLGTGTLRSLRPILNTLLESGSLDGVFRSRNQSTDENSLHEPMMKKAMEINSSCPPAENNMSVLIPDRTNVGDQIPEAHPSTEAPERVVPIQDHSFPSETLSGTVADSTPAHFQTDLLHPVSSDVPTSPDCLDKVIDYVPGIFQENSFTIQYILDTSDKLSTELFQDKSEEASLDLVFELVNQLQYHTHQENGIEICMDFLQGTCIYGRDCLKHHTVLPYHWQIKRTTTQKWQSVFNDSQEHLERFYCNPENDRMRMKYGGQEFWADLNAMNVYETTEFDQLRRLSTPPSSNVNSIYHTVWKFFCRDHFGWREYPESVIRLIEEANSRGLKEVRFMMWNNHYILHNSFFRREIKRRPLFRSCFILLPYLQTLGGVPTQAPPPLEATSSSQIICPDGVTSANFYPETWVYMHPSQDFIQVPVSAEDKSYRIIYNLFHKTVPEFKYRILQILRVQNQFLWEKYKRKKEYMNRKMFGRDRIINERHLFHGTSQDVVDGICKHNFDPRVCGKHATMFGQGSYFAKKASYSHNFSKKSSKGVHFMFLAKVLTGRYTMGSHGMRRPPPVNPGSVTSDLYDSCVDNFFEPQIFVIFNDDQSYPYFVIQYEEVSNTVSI

Looking for the measured IC50 of `CC#Cc1ccc2c(=O)[nH]c(CSc3ncccn3)nc2c1C` , can you help?
2.46 µM

Then `CC#Cc1ccc2c(=O)[nH]c(CSc3ccc(C(=O)O)cc3)nc2c1C` ?
24.6 µM

====

- STUDY_SYSTEM: PARP14 cat-wwe (Homo sapiens, UniProt Q460N5)
- Sequence (Q460N5 1523-1801 limits assumed): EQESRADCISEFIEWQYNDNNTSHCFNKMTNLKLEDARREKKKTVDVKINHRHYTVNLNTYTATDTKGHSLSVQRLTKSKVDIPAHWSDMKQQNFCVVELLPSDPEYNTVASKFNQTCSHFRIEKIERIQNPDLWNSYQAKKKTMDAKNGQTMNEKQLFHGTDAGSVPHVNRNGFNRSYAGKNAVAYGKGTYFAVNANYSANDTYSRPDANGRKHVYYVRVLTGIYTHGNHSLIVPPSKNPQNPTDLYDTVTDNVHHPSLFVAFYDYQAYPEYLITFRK
Provide the recorded log10 IC50 for the entries that follow.
In plain terms, each number is the log10 of measured IC50 in µM.

Looking for the measured log10 IC50 of `Cc1ccc2c(=O)[nH]c(CSc3ccc(C(=O)O)cc3)nc2c1C` , can you help?
0.94

Then `C#Cc1ccc2c(=O)[nH]c(CSc3ccc(C(=O)O)cc3)nc2c1C` ?
1.03

Then `Cc1ccc2c(=O)[nH]c(CSc3nnc(N)[nH]3)nc2c1C` ?
0.83

Then `Cc1ccc2c(=O)[nH]c(CSc3ncccn3)nc2c1C` ?
0.93

Then `Cc1ccc2c(=O)[nH]c(CSc3ncnc4nc[nH]c34)nc2c1C` ?
0.90

Then `CC#Cc1ccc2c(=O)[nH]c(CSc3ncccn3)nc2c1C` ?
0.46

Then `CC#Cc1ccc2c(=O)[nH]c(CSc3ccc(C(=O)O)cc3)nc2c1C` ?
-0.04
